- Experimental system: T1, HLA class I molecule A02.01
- T1 construct: Purified MHC class I complex; also called HLA-A02:01
- Assay info: competition with radiolabeled reference peptide on purified MHC I
# IC50 values compiled below
Observed property: IC50 (nM)

> print(dat)
                                     binder  numeric.value
1     IIIEYCFYG (also called PDGFRa, T674I)             16
2         ALWECSLPQA (also called MSH3(-1))              9
3  LLQVTQTSFA (also called MLL2, . . ; LSPH)            677
4  VLPEPHLAL (also called GATA3 . . ; CSNH)             16
5       FQNGKMALS (also called FRG1B, L52S)           3280
6  ALAPTLTHM (also called MLL2, . . ; LSPH)             59
7    YIIIEYCFYG (also called PDGFRa, T674I)            113
8  LLYITAFFLL (also called NDUFC2 (-KCDT14)(-1))            323
